# targetEntity: human PPAR γ (Homo sapiens, UniProt P37231)
# Construct: PPARα: aa 167-C-terminus; PPARγ: aa 165-C-terminus
# Sequence (P37231 193-505): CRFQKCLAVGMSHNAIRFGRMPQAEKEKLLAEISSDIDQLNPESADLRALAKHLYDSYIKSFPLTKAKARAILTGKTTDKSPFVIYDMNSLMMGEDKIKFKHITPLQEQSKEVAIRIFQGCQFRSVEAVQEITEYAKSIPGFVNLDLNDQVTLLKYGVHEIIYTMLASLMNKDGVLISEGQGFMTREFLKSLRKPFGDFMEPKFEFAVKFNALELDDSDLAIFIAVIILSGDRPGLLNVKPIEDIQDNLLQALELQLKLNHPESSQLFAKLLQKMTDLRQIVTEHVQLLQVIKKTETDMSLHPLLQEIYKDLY
# assayExplanation: In vitro PPAR gamma transactivation assay (GAL4-DBD-PPAR-LBD luciferase reporter in HEK293 cells)
# runParameters: HEK293 cells, 24 h with compound, five concentrations 0.01 to 30 μM, means of at least three experiments; read-out: In vitro activation PPAR γ EC50
pEC50: −log10 of the molar value.

>  <compound>
CCO[C@@H](Cc1ccc(OC/C=C(\C)C#Cc2cccc(C(F)(F)F)c2)cc1)C(=O)O

>  <pEC50>
6.47

$$$$
>  <compound>
CCO[C@@H](Cc1ccc(OC/C=C(\C)C#Cc2cc(Cl)cc(Cl)c2)cc1)C(=O)O

>  <pEC50>
6.51

$$$$
>  <compound>
CCOC(Cc1ccc(OCC=C(C)C#Cc2cccc3ccccc23)cc1)C(=O)O (stereo in doubt)

>  <pEC50>
5.57

$$$$
>  <compound>
CCO[C@@H](Cc1ccc(OC/C=C/C#Cc2cc(Cl)cc(Cl)c2)cc1)C(=O)O

>  <pEC50>
5.85

$$$$
